assay: Half life in mouse plasma at 50 uM by HPLC analysis; assay type: ADME, cell-free
Measured metric: half-life at 50 µM (h)
Expressed in h, but write only the number.

query: Requested field: half-life at 50 µM. Item: CCc1c2c(nc3ccc(O)cc13)-c1cc3c(c(=O)n1C2)COC(=O)[C@@]3(CC)OC(=O)CNC(=O)CCCCCCC(=O)NO
result: 1

----------
biological target: Histone deacetylase 1 (Homo sapiens); assay: Inhibition of recombinant human HDAC1 expressed in baculovirus infected High5 insect cells using Ac-Lys-Tyr-Lys(epsilon-acetyl)-AMC as substrate after 24 hrs by fluorescence assay
Sequence (Q13547 whole entry): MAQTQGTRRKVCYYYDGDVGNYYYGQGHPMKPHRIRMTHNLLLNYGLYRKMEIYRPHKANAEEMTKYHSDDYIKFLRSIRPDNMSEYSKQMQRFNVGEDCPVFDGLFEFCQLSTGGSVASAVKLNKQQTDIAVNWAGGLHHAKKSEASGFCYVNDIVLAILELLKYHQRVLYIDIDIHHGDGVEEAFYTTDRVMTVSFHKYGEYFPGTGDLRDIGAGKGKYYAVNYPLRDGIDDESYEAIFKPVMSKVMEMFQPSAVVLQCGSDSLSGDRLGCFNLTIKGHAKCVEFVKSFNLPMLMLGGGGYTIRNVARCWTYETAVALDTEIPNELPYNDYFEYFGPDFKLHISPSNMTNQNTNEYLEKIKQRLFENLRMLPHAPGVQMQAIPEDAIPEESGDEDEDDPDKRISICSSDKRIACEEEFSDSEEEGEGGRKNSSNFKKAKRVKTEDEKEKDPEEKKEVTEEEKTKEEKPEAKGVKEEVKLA
Entries and their measured log10 IC50 follow.
On a log10 scale: recorded IC50, unit µM.

Some molecules with known log10 IC50 results, for comparison:
>  <Structure>
CCc1c2c(nc3ccc(O)cc13)-c1cc3c(c(=O)n1C2)COC(=O)[C@@]3(CC)OC(=O)CNC(=O)CCCCCCC(=O)O

>  <Reading>
1.44

$$$$
>  <Structure>
CCc1c2c(nc3ccc(O)cc13)-c1cc3c(c(=O)n1C2)COC(=O)[C@@]3(CC)OC(=O)CCCCCCCCC(=O)NO

>  <Reading>
-0.15

$$$$
>  <Structure>
CCc1c2c(nc3ccc(OC(=O)N4CCN(C(=O)CCCCCCCCC(=O)NO)CC4)cc13)-c1cc3c(c(=O)n1C2)COC(=O)[C@]3(O)CC

>  <Reading>
1.48

$$$$
>  <Structure>
CCc1c2c(nc3ccc(O)cc13)-c1cc3c(c(=O)n1C2)COC(=O)[C@@]3(CC)OC(=O)CNC(=O)CCCCCCC(=O)NO

>  <Reading>
0.29

$$$$
>  <Structure>
CCc1c2c(nc3ccc(O)cc13)-c1cc3c(c(=O)n1C2)COC(=O)[C@@]3(CC)OC(=O)CCCCCCCCCCC(=O)NO

>  <Reading>
1.10

$$$$
>  <Structure>
CCc1c2c(nc3ccc(OC(=O)N4CCN(C(=O)CCCCCC(=O)NO)CC4)cc13)-c1cc3c(c(=O)n1C2)COC(=O)[C@]3(O)CC

>  <Reading>
1.13

$$$$

query: Fill in the recorded log10 IC50 for this molecule, with Histone deacetylase 1 (Homo sapiens) as test system: CCc1c2c(nc3ccc(O)cc13)-c1cc3c(c(=O)n1C2)COC(=O)[C@@]3(CC)OC(=O)CCCCCCC(=O)NO
result: -1.05

query: Fill in the recorded log10 IC50 for this molecule, with Histone deacetylase 1 (Homo sapiens) as test system: CCc1c2c(nc3ccc(O)cc13)-c1cc3c(c(=O)n1C2)COC(=O)[C@@]3(CC)OC(=O)CCCCCCC(=O)O
result: 1.43
